assay: in vitro; details: human
Recorded CC50 by entry
experimental_endpoint: CC50 (µM)

- compound: "COc1ccc2cc1Oc1ccc(cc1)C[C@H]1c3cc(c(OC)cc3CCN1C)Oc1c(O)c(OC)cc3c1[C@H](C2)N(C)CC3"
  result_unit: "µM"
  comparator: "="
  recorded_number: 12.3
- compound: "COc1cc2c(cc1O)[C@@H](Cc1ccc(O)c(Oc3ccc(C[C@@H]4c5cc(OC)c(OC)cc5CCN4C)cc3)c1)N(C)CC2"
  result_unit: "µM"
  comparator: ">"
  recorded_number: 12.5
- compound: "COc1ccc2cc1Oc1ccc(cc1)C[C@H]1c3cc(c(OC)cc3CCN1C)Oc1c(OC)c(OC)cc3c1[C@H](C2)N(C)CC3 [Tetrandrine, reference compound]"
  result_unit: "µM"
  comparator: "="
  recorded_number: 11.7
- compound: "COc1ccc2cc1Oc1ccc(cc1)C[C@H]1c3c(cc4c(c3Oc3cc5c(cc3OC)CCN(C)[C@@H]5C2)OCO4)CCN1C [Cepharanthine, reference compound]"
  result_unit: "µM"
  comparator: "="
  recorded_number: 11

---

test: in vitro; details: human, Caco-2
Recorded CC50 at 48 h by entry
experimental_endpoint: CC50 at 48 h

- compound: "COc1cc2c3cc1Oc1c(OC)c(OC)cc4c1[C@@H](Cc1ccc(O)c(c1)Oc1ccc(cc1)C[C@@H]3N(C)CC2)N(C)CC4"
  result: "> 50 µM"
- compound: "COc1ccc2cc1Oc1ccc(cc1)C[C@H]1c3cc(c(OC)cc3CCN1C)Oc1c(OC)c(OC)cc3c1[C@H](C2)N(C)CC3 [Tetrandrine, reference compound]"
  result: "> 50 µM"
- compound: "COc1cc2c(cc1OC)[C@@H](Cc1ccc(Oc3cc(C[C@@H]4c5cc(OC)c(OC)cc5CCN4C)ccc3O)cc1)N(C)CC2"
  result: "> 50 µM"
- compound: "COc1ccc2cc1Oc1ccc(cc1)C[C@H]1c3cc(c(OC)cc3CCN1C)Oc1c(O)c(OC)cc3c1[C@H](C2)N(C)CC3"
  result: "46.4 µM"
- compound: "COc1cc2c(cc1O)[C@@H](Cc1ccc(O)c(Oc3ccc(C[C@@H]4c5cc(OC)c(OC)cc5CCN4C)cc3)c1)N(C)CC2"
  result: "> 50 µM"
- compound: "COc1ccc2cc1Oc1ccc(cc1)C[C@H]1c3c(cc4c(c3Oc3cc5c(cc3OC)CCN(C)[C@@H]5C2)OCO4)CCN1C [Cepharanthine, reference compound]"
  result: "> 50 µM"

---

test system: GX_P2V; assay: microbe, parasite or virus in culture; type: cell-based, Guangxi pangolin-CoV (GX_P2V); details: Vero C1008, 48 h, read-out: Percentage of Inhibition (%)

- compound: "CCC(CC)COC(=O)[C@H](C)N[P@](=O)(OC[C@H]1O[C@@](C#N)(c2ccc3c(N)ncnn23)[C@H](O)[C@@H]1O)Oc1ccccc1 [Remdesivir (30), remdesivir, reference compound]"
  inhibition at 0.495 µM [%]: 41.5
- compound: "COc1cc2c(cc1OC)C(Cc1ccc(O)c(Oc3cc4c(cc3OC)CCN(C)C4Cc3ccc(O)cc3)c1)N(C)CC2 (stereo not shown)"
  inhibition at 0.495 µM [%]: 84.2
- compound: "COc1ccc(C[C@@H]2c3cc(Oc4cc(C[C@@H]5c6cc(OC)c(OC)cc6CCN5C)ccc4O)c(OC)cc3CCN2C)cc1"
  inhibition at 0.495 µM [%]: 91.2
- compound: "COc1ccc2cc1Oc1ccc(cc1)CC1c3cc(c(OC)cc3CCN1C)Oc1c(OC)c(OC)c(O)c3c1C(C2)N(C)CC3 (stereo not shown)"
  inhibition at 0.495 µM [%]: 53.4

---

Recorded inhibition at 0.49485 µM by entry
system: GX_P2V; test: microbe, parasite or virus in culture; assay type: cell-based, Guangxi pangolin-CoV (GX_P2V); details: Vero C1008, 48 h, read-out: Percentage of Inhibition (%)
experimental_endpoint: inhibition at 0.49485 µM (%)

- molecule: "COc1cc2c3cc1Oc1cc(ccc1O)C[C@@H]1c4c(cc(OC)c(O)c4Oc4ccc(cc4)C[C@H]3N(C)CC2)CCN1C [L-curine]"
  experimental_endpoint: "inhibition at 0.49485 µM"
  result_unit: "%"
  recorded_number: 81.4
- molecule: "COc1ccc2cc3[n+](cc2c1OC)CCc1cc2c(cc1-3)OCO2 [berberine (2), berberine, reference compound]"
  experimental_endpoint: "inhibition at 0.49485 µM"
  result_unit: "%"
  recorded_number: 52.1
- molecule: "COc1cc2c(cc1O)[C@@H](Cc1ccc(O)cc1)N(C)CC2 [(R)-N-Methylcolaurine]"
  experimental_endpoint: "inhibition at 0.49485 µM"
  result_unit: "%"
  recorded_number: 55.7
- molecule: "NCCc1ccc(O)c(O)c1 [Compound 4, dopamine, reference compound]"
  experimental_endpoint: "inhibition at 0.49485 µM"
  result_unit: "%"
  recorded_number: 92.6
- molecule: "COc1cc2c(cc1O)C(Cc1ccc(O)cc1)NCC2 (stereo not shown) [Compound 11, coclaurine]"
  experimental_endpoint: "inhibition at 0.49485 µM"
  result_unit: "%"
  recorded_number: 33.2
- molecule: "COc1ccc2cc1Oc1ccc(cc1)C[C@H]1c3cc(c(OC)cc3CCN1C)Oc1c(O)c(OC)cc3c1[C@H](C2)N(C)CC3 [Fangchinoline, fangchinoline]"
  experimental_endpoint: "inhibition at 0.49485 µM"
  result_unit: "%"
  recorded_number: 97.5
- molecule: "COc1ccc2cc1Oc1ccc(cc1)C[C@H]1c3cc(c(OC)cc3CCN1C)Oc1c(OC)c(OC)cc3c1[C@H](C2)N(C)CC3 [Tetrandrine, reference compound]"
  experimental_endpoint: "inhibition at 0.49485 µM"
  result_unit: "%"
  recorded_number: 11.3

---

tested on: SARS-CoV-2 trVLP; conditions: Caco-2
experimental_endpoint: SI (SARS-CoV-2 trVLP, Caco 2-N)

- compound: "COc1ccc2cc1Oc1ccc(cc1)C[C@H]1c3cc(c(OC)cc3CCN1C)Oc1c(OC)c(OC)cc3c1[C@H](C2)N(C)CC3 [Tetrandrine, reference compound]"
  result: "> 17.86"
- compound: "COc1cc2c(cc1O)[C@@H](Cc1ccc(O)c(Oc3ccc(C[C@@H]4c5cc(OC)c(OC)cc5CCN4C)cc3)c1)N(C)CC2"
  result: "> 35.21"
- compound: "COc1cc2c3cc1Oc1c(OC)c(OC)cc4c1[C@@H](Cc1ccc(O)c(c1)Oc1ccc(cc1)C[C@@H]3N(C)CC2)N(C)CC4"
  result: "> 6.13"
- compound: "COc1ccc2cc1Oc1ccc(cc1)C[C@H]1c3cc(c(OC)cc3CCN1C)Oc1c(O)c(OC)cc3c1[C@H](C2)N(C)CC3"
  result: 24.05
- compound: "COc1ccc2cc1Oc1ccc(cc1)C[C@H]1c3c(cc4c(c3Oc3cc5c(cc3OC)CCN(C)[C@@H]5C2)OCO4)CCN1C [Cepharanthine, reference compound]"
  result: "> 31.25"
- compound: "COc1cc2c(cc1OC)[C@@H](Cc1ccc(Oc3cc(C[C@@H]4c5cc(OC)c(OC)cc5CCN4C)ccc3O)cc1)N(C)CC2"
  result: "> 17.61"

---

assay: in vitro; conditions: African green monkey

- compound: "COc1cc2c3cc1Oc1c(OC)c(OC)cc4c1[C@@H](Cc1ccc(O)c(c1)Oc1ccc(cc1)C[C@@H]3N(C)CC2)N(C)CC4"
  CC50 at 48 h: "> 50 µM"
- compound: "COc1cc2c(cc1O)[C@@H](Cc1ccc(O)c(Oc3ccc(C[C@@H]4c5cc(OC)c(OC)cc5CCN4C)cc3)c1)N(C)CC2"
  CC50 at 48 h: "> 50 µM"
- compound: "COc1ccc2cc1Oc1ccc(cc1)C[C@H]1c3c(cc4c(c3Oc3cc5c(cc3OC)CCN(C)[C@@H]5C2)OCO4)CCN1C [Cepharanthine, reference compound]"
  CC50 at 48 h: "> 12.5 µM"
- compound: "COc1cc2c(cc1OC)[C@@H](Cc1ccc(Oc3cc(C[C@@H]4c5cc(OC)c(OC)cc5CCN4C)ccc3O)cc1)N(C)CC2"
  CC50 at 48 h: "> 50 µM"
- compound: "COc1ccc2cc1Oc1ccc(cc1)C[C@H]1c3cc(c(OC)cc3CCN1C)Oc1c(O)c(OC)cc3c1[C@H](C2)N(C)CC3"
  CC50 at 48 h: "> 12.5 µM"
- compound: "COc1ccc2cc1Oc1ccc(cc1)C[C@H]1c3cc(c(OC)cc3CCN1C)Oc1c(OC)c(OC)cc3c1[C@H](C2)N(C)CC3 [Tetrandrine, reference compound]"
  CC50 at 48 h: "21.9 µM"

---

experiment: in vitro; settings: African green monkey
experimental_endpoint: CC50

- molecule: "COc1ccc2cc1Oc1ccc(cc1)C[C@H]1c3cc(c(OC)cc3CCN1C)Oc1c(OC)c(OC)cc3c1[C@H](C2)N(C)CC3 [Tetrandrine, reference compound]"
  result: "21.9 µM"
